Quick list: IC50 per entry.
System: HepG2
MEASUREMENT DESCRIPTION: Cytotoxicity against human HepG2 cells assessed as reduction in cell viability after 48 hrs by MTT assay
Assay type: functional, cell-based
CONDITION DETAILS: HepG2, 48 h
TEST READOUT: IC50 (µM)

* O=Cc1c(O)ccc2oc(-c3ccccc3[N+](=O)[O-])nc12 | 17.4
* O=Cc1c(O)ccc2oc(-c3cccc4ccccc34)nc12 | 27.7
* Cc1ccccc1-c1nc2c(C=O)c(O)ccc2o1 | 4.74
* O=Cc1c(O)ccc2oc(-c3ccccc3Cl)nc12 | 10.5
* CC(=O)c1c(O)ccc2oc(-c3ccccc3C)nc12 | 11.7
* COc1cccc2c1C(=O)c1c(O)c3c(c(O)c1C2=O)C[C@@](O)(C(=O)CO)C[C@@H]3O[C@H]1C[C@H](N)[C@H](O)[C@H](C)O1 | 0.52
* O=Cc1c(O)ccc2oc(-c3cccc(Cl)c3)nc12 | 0.81
* COc1ccccc1-c1nc2c(C=O)c(O)ccc2o1 | 10.8
* COc1cc(OC)cc(-c2nc3c(C=O)c(O)ccc3o2)c1 | 21.4

====

Test system: A549
MEASUREMENT DESCRIPTION: Cytotoxicity against human A549 cells assessed as reduction in cell viability after 48 hrs by MTT assay
Format: functional, cell-based
CONDITION DETAILS: A549, 48 h
Quick list: IC50 per entry.
TEST READOUT: IC50 (µM)

* CC(=O)c1c(O)ccc2oc(-c3ccccc3C)nc12 | 20.1
* O=Cc1c(O)ccc2oc(-c3cccc4ccccc34)nc12 | 28.4
* Cc1ccccc1-c1nc2c(C=O)c(O)ccc2o1 | 2.21
* O=Cc1c(O)ccc2oc(-c3ccccc3Cl)nc12 | 7.68
* COc1cccc2c1C(=O)c1c(O)c3c(c(O)c1C2=O)C[C@@](O)(C(=O)CO)C[C@@H]3O[C@H]1C[C@H](N)[C@H](O)[C@H](C)O1 | 0.34

====

Quick list: IC50 per entry.
System: A549
MEASUREMENT DESCRIPTION: Cytotoxicity against human A549 cells assessed as reduction in cell viability after 48 hrs by MTT assay
Assay type: functional, cell-based
CONDITION DETAILS: A549, 48 h
TEST READOUT: IC50 (µM)

* COc1cc(OC)cc(-c2nc3c(C=O)c(O)ccc3o2)c1 | 30.3
* COc1ccccc1-c1nc2c(C=O)c(O)ccc2o1 | 2.8
* O=Cc1c(O)ccc2oc(-c3cccc(Cl)c3)nc12 | 1.87
* O=Cc1c(O)ccc2oc(-c3ccccc3[N+](=O)[O-])nc12 | 7.03

====

Quick list: pIC50 per entry.
MEASUREMENT DESCRIPTION: Cytotoxicity against human […] cells assessed as reduction in cell viability after 48 hrs by MTT assay
Assay type: functional, cell-based
pIC50: −log10 of the molar value.
TEST READOUT: pIC50

• CC(=O)c1c(O)ccc2oc(-c3ccccc3C)nc12 = 4.76
• Cc1ccccc1-c1nc2c(C=O)c(O)ccc2o1 = 5.01
• O=Cc1c(O)ccc2oc(-c3ccccc3Cl)nc12 = 4.85
• O=Cc1c(O)ccc2oc(-c3ccccc3[N+](=O)[O-])nc12 = 4.73
• COc1cccc2c1C(=O)c1c(O)c3c(c(O)c1C2=O)C[C@@](O)(C(=O)CO)C[C@@H]3O[C@H]1C[C@H](N)[C@H](O)[C@H](C)O1 = 5.80
• O=Cc1c(O)ccc2oc(-c3cccc(Cl)c3)nc12 = 6.01
• O=Cc1c(O)ccc2oc(-c3cccc4ccccc34)nc12 = 4.67
• COc1cc(OC)cc(-c2nc3c(C=O)c(O)ccc3o2)c1 = 4.52
• COc1ccccc1-c1nc2c(C=O)c(O)ccc2o1 = 4.98

Each recorded value in this set is attributed to ChEMBL document CHEMBL4325881.
